Task for the reader: assign each of the following compounds its reported MIC (minimal inhibitory concentration).
# Tested on: Staphylococcus aureus
# assayName: conventional broth-dilution microtiter test, MIC
# Format: cell-based
Answers are plain numbers.

Reference set (3 entries):
compound	MIC (minimal inhibitory concentration)
CCC1OC(=O)CC(O)C(C)C(OC2OC(C)C(OC3CC(C)(O)C(OC(=O)Cc4ccccc4)C(C)O3)C(N(C)C)C2OC(C)=O)C(CC=O)CC(C)C(=O)C=CC(C)=CC1COC(=O)Cc1ccccc1 (stereo not shown) [Compound 5, 2'-O-Acetyl-23,4"-Di-O-Phenylacetyl-DMT]	50
CCC1OC(=O)CC(O)C(C)C(OC2OC(C)C(OC3CC(C)(O)C(OC(=O)COc4ccccc4)C(C)O3)C(N(C)C)C2OC(C)=O)C(CC=O)CC(C)C(=O)C=CC(C)=CC1COC(=O)COc1ccccc1 (stereo not shown) [Compound 7, 2'-O-Acetyl-4",23-Di-O-Phenoxyacetyl-DMT]	12.5
CCC1OC(=O)CC(O)C(C)C(OC2OC(C)C(OC3CC(C)(O)C(OC(=O)CC(C)C)C(C)O3)C(N(C)C)C2OC(C)=O)C(CC=O)CC(C)C(=O)C=CC(C)=CC1C (stereo not shown) [Compound 18, 2'-O-Acetyl-4"-O-Isovaleryl-DMOT]	0.78

GET /value?item= CCC1OC(=O)CC(O)C(C)C(OC2OC(C)C(OC3CC(C)(O)C(OC(=O)CC(C)C)C(C)O3)C(N(C)C)C2O)C(CC=O)CC(C)C(=O)C=CC(C)=CC1C (stereo not shown) [Compound 19, 4"-O-Isovaleryl-DMOT] &field=MIC (minimal inhibitory concentration) returns 3.12
